Tested on: HRMC
Assay: Anti-fibrotic activity in human HRMC cells assessed as downregulation of IL11 mRNA expression at 1 uM pretreated with compound for 30 mins followed by TGF-beta stimulation and measured after 24 hrs by qRT-PCR analysis
Format: functional, cell-based
Settings: time 24.5 hrs
Calls of active or inactive are those of the source. The calls are words filed in the database; no cut-off is given here.
recordedMetric: Activity

NC(=O)C[S+]([O-])Cc1ccccc1 (centres undefined) :: inactive
CC1(C[S+]([O-])c2ccccc2)COC1 (centres undefined) :: inactive
NC(=O)C[S+]([O-])c1cccc(F)c1 (centres undefined) :: inactive
CC1(C[S+]([O-])Cc2ccccc2)COC1 (centres undefined) :: inactive
